Examples of compounds with documented AC50 follow.
Tested on: MYB mRNA
Assay method text: RT-qPCR splicing assay, MYB canonical junction (CJ) and alternative junction (AJ) mRNA
Format: cell-based, human
Condition: Homo sapiens; increase in MYB alternative junction (AJ) mRNA, RT-qPCR; read-out: MYB AJ AC50
Quantity kind: AC50

Compound	Reported
Cc1cn2cc(-c3ccc4c(=O)n([C@@H]5CCN[C@H](C)C5)ccc4n3)cc(F)c2n1	1 to 10 µM
Cc1cn2nc(-c3ccc4c(=O)n(C5CCNCC5)ccc4c3)cc(Oc3ccccc3)c2n1	< 0.1 µM
Cc1cc(-c2cc(F)c3c(=O)n(C4CCNCC4)cnc3c2)cc2cn(C)nc12	< 0.1 µM
Cc1cn2nc(-c3ccc4c(=O)n([C@@H]5CCNC6(CCC6)C5)ncc4n3)cc(C)c2n1	0.1 to 1 µM
Cc1cn2cc(-c3ccc4c(=O)n([C@@H]5CCN[C@H](C)C5)cnc4c3)cc(F)c2n1	0.1 to 1 µM
CN1CCC(Nc2ccc3c(=O)n(-c4ccc5nn(C)cc5c4)cnc3c2)CC1	1 to 10 µM
Cc1cn2cc(-c3cc(F)c4c(=O)n([C@@H]5CCNC5)ccc4c3)cc(F)c2n1 (single isomer, unassigned)	< 0.1 µM

----------
System: Target C
Assay method text: HiBiT protein abundance assay, Target C (Promega Nano-Glo HiBiT Lytic Detection System, knock-in K562 cell line)
Format: cell-based, human
Condition: Homo sapiens, K562, 24 h, HiBiT K562 cell line, 24 hours, top dose 10 μM; read-out: Effect on protein abundance, Target C (IC50 category)

Molecule	System	IC50
Cc1c(O)c(-c2ncc3c(=O)n(C45CCC(N)(C4)C5)ccc3n2)cc2cn(C)nc12	Target C	1 to 10 µM
Cc1cn2nc(-c3ccc4c(c3)CCN(C3CCN(C)C3)C4=O)cc(C)c2n1 (stereo not drawn)	Target C	> 10 µM
Cc1c(O)c(-c2ncc3c(=O)n(C45CCC(N)(CC4)CC5)ccc3n2)cc2cn(C)nc12	Target C	> 10 µM
Cc1cc(-c2ccc3c(=O)n(C4CCN(C)CC4)cnc3c2F)cc2cn(C)nc12	Target C	> 10 µM
Cc1cc(-c2cc3ccn(C4CCNCC4)c(=O)c3cn2)cc2cn(C)nc12	Target C	1 to 10 µM
Cc1cn2cc(-c3ccc4c(=O)n([C@H]5CCNC5)cc(C)c4c3)cc(C#N)c2n1	Target C	> 10 µM
Cc1cn2nc(-c3cc(O)c4c(=O)n(C5CCN(CCF)CC5)ncc4c3)cc(C)c2n1	Target C	0.1 to 1 µM
Cc1cn2cc(-c3cc(F)c4c(=O)n(C5CCNC5)ccc4c3)cc(C#N)c2n1 (stereo not drawn)	Target C	> 10 µM
CN1CCC(c2ccc3c(=O)n(-c4ccc5nn(C)cc5c4)cnc3c2)CC1	Target C	> 10 µM
Cc1c(O)c(-c2ncc3c(=O)n(C45CCC(N)(CC4)C5)ccc3n2)cc2cn(C)nc12	Target C	1 to 10 µM
Cc1cn2cc(-c3ncc4c(=O)n([C@@H]5CCNC5)ccc4n3)cc(F)c2n1	Target C	1 to 10 µM
Cc1cn2nc(-c3cc4ccn(C5CCNCC5)c(=O)c4cc3O)cc(C)c2n1	Target C	< 0.1 µM
Cc1cn2nc(-c3ccc4c(=O)n(C5CCNCC5)ccc4c3)cc(Oc3ccccc3)c2n1	Target C	< 0.1 µM
Cc1c(O)c(-c2ncc3c(=O)n(C4CC5CC4CN5)ccc3n2)cc2cn(C)nc12 (stereo not drawn)	Target C	1 to 10 µM
Cc1c(O)c(-c2ccc3c(=O)n(C4CCNCC4)ccc3n2)cc2cn(C)nc12	Target C	< 0.1 µM
